# System: EKVX
# Test method notes: NCI60 one-dose screen
# Assay type: cell-based
# Conditions: Homo sapiens, 10 μM, one-dose, read-out: Growth percent
Where activity at 10 µM equals or exceeds 10%, the correct label is met; where it does not, the label is not met.

These solved cases illustrate the format of a correct answer.
CC[C@]12C=CCN3CC[C@@]4(c5ccc(OC)cc5N(C)[C@H]4[C@@](O)(C(=O)OC)[C@@H]1OC(=O)CCC[P+](c1cc(C)c(OC)c(C)c1)(c1cc(C)c(OC)c(C)c1)c1cc(C)c(OC)c(C)c1)[C@@H]32 [9e] ... not met
CC[C@]12C=CCN3CC[C@@]4(c5ccc(OC)cc5N(C)[C@H]4[C@@](O)(C(=O)OC)[C@@H]1OC(=O)CCCC[P+](c1ccc(F)cc1)(c1ccc(F)cc1)c1ccc(F)cc1)[C@@H]32 [10c] ... met
CCC12C=CCN3CCC4(c5ccc(OC)cc5N(C)C4C(O)(C(=O)OC)C1OC(=O)c1ccc(C[P+](c4ccccc4)(c4ccccc4)c4ccccc4)cc1)C32 (centres unmarked) [compound 12] ... met
CC[C@]12C=CCN3CC[C@@]4(c5ccc(OC)cc5N(C)[C@H]4[C@@](O)(C(=O)OC)[C@@H]1OC(=O)CCC[P+](c1ccc(OC)cc1)(c1ccc(OC)cc1)c1ccc(OC)cc1)[C@@H]32 [9b] ... not met

Now turn to the next compound.
**Query** Is it the case that CC[C@]12C=CCN3CC[C@@]4(c5ccc(OC)cc5N(C)[C@H]4[C@@](O)(C(=O)OC)[C@@H]1OC(=O)CCC[P+](c1ccccc1)(c1ccccc1)c1ccccc1)[C@@H]32 [compound 3, reference compound] has activity at 10 µM reaching or exceeding 10%?
**Result** met

---

Exercise: for every item that follows, state its recorded activity at 10 µM.
# Tested on: SW-620
# Test method notes: NCI60 one-dose screen
# Format: cell-based
# Conditions: Homo sapiens, SW-620, read-out: Growth percent

Kindly give each listed record's activity at 10 µM.
1. CC[C@]12C=CCN3CC[C@@]4(c5ccc(OC)cc5N(C)[C@H]4[C@@](O)(C(=O)OC)[C@@H]1OC(=O)CCC[P+](c1ccc(F)cc1)(c1ccc(F)cc1)c1ccc(F)cc1)[C@@H]32
2. CCC12C=CCN3CCC4(c5ccc(OC)cc5N(C)C4C(O)(C(=O)OC)C1OC(=O)CCC[P+](c1ccc(C)cc1)(c1ccc(C)cc1)c1ccc(C)cc1)C32 (stereo not shown)
3. CC[C@]12C=CCN3CC[C@@]4(c5ccc(OC)cc5N(C)[C@H]4[C@@](O)(C(=O)OC)[C@@H]1OC(=O)CCC[P+](C1CCCCC1)(C1CCCCC1)C1CCCCC1)[C@@H]32
4. CCC12C=CCN3CC[C@@]4(c5ccc(OC)cc5N(C)[C@H]4[C@@](O)(C(=O)OC)[C@@H]1OC(C)=O)[C@@H]32 (stereo partly shown)

**Result**
45.3%
-85.2%
3.91%
104%

---

# Test system: HL-60(TB)
# Test method notes: NCI60 five-dose screen
# Format: cell-based
# Conditions: Homo sapiens, HL-60
Parameter measured: GI50
Remember to quote the unit after the number.

Kindly give each listed record's GI50.
1. CC[C@]12C=CCN3CC[C@@]4(c5ccc(OC)cc5N(C)[C@H]4[C@@](O)(C(=O)OC)[C@@H]1OC(=O)CCCC[P+](C1CCCCC1)(C1CCCCC1)C1CCCCC1)[C@@H]32 [10d]
2. CCC12C=CCN3CCC4(c5ccc(OC)cc5N(C)C4C(O)(C(=O)OC)C1OC(=O)CCC[P+](c1ccc(C)cc1)(c1ccc(C)cc1)c1ccc(C)cc1)C32 (stereo not shown)
3. CC[C@]12C=CCN3CC[C@@]4(c5ccc(OC)cc5N(C)[C@H]4[C@@](O)(C(=O)OC)[C@@H]1OC(=O)CCC[P+](C1CCCCC1)(C1CCCCC1)C1CCCCC1)[C@@H]32
4. CC[C@]12C=CCN3CC[C@@]4(c5ccc(OC)cc5N(C)[C@H]4[C@@](O)(C(=O)OC)[C@@H]1OC(=O)CCC[P+](c1ccc(F)cc1)(c1ccc(F)cc1)c1ccc(F)cc1)[C@@H]32

**Result**
1. 293 nM
2. 162 nM
3. 322 nM
4. 1770 nM

---

Exercise: for every item that follows, state its recorded activity at 10 µM.
# Test system: HCT-116
# Test method notes: NCI60 one-dose screen
# Type: cell-based
# Conditions: Homo sapiens, HCT-116, read-out: Growth percent
Answers are plain numbers, in %.

CCC12C=CCN3CCC4(c5ccc(OC)cc5N(C)C4C(O)(C(=O)OC)C1OC(=O)CCC[P+](c1ccc(C)cc1)(c1ccc(C)cc1)c1ccc(C)cc1)C32 (stereo not drawn) [9a] ... -93.4
CC[C@]12C=CCN3CC[C@@]4(c5ccc(OC)cc5N(C)[C@H]4[C@@](O)(C(=O)OC)[C@@H]1OC(=O)CCC[P+](c1ccc(F)cc1)(c1ccc(F)cc1)c1ccc(F)cc1)[C@@H]32 [9c] ... 32.2
CC[C@]12C=CCN3CC[C@@]4(c5ccc(OC)cc5N(C)[C@H]4[C@@](O)(C(=O)OC)[C@@H]1OC(=O)CCCC[P+](c1ccccc1)(c1ccccc1)c1ccccc1)[C@@H]32 [compound 4, reference compound] ... 8.03
CC[C@]12C=CCN3CC[C@@]4(c5ccc(OC)cc5N(C)[C@H]4[C@@](O)(C(=O)OC)[C@@H]1OC(=O)CCC[P+](c1ccccc1)(c1ccccc1)c1ccccc1OC)[C@@H]32 [9f] ... -51

Kindly give each listed record's activity at 10 µM.
1. CC[C@]12C=CCN3CC[C@@]4(c5ccc(OC)cc5N(C)[C@H]4[C@@](O)(C(=O)OC)[C@@H]1OC(=O)CCCC[P+](C1CCCCC1)(C1CCCCC1)C1CCCCC1)[C@@H]32 [10d]
2. CCC12C=CCN3CC[C@@]4(c5ccc(OC)cc5N(C)[C@H]4[C@@](O)(C(=O)OC)[C@@H]1OC(C)=O)[C@@H]32 (stereo partly drawn) [compound 2, vindoline]

**Result**
[4.69, 104]

---

# Tested on: BT-549
# Test method notes: NCI60 one-dose screen
# Type: cell-based
# Conditions: Homo sapiens, BT-549, read-out: Growth percent
Parameter measured: activity at 10 µM (%)
One number for each entry, in %.

Examples with their reported activity at 10 µM follow.
CC[C@]12C=CCN3CC[C@@]4(c5ccc(OC)cc5N(C)[C@H]4[C@@](O)(C(=O)OC)[C@@H]1OC(=O)CCCC[P+](c1ccccc1)(c1ccccc1)c1ccccc1)[C@@H]32 [compound 4, reference compound] ... -1.04
CC[C@]12C=CCN3CC[C@@]4(c5ccc(OC)cc5N(C)[C@H]4[C@@](O)(C(=O)OC)[C@@H]1OC(=O)CCC[P+](C1CCCCC1)(C1CCCCC1)C1CCCCC1)[C@@H]32 ... -97.4
CC[C@]12C=CCN3CC[C@@]4(c5ccc(OC)cc5N(C)[C@H]4[C@@](O)(C(=O)OC)[C@@H]1OC(=O)CCCC[P+](C1CCCCC1)(C1CCCCC1)C1CCCCC1)[C@@H]32 [10d] ... -97.4
CCC12C=CCN3CCC4(c5ccc(OC)cc5N(C)C4C(O)(C(=O)OC)C1OC(=O)CCC[P+](c1ccc(C)cc1)(c1ccc(C)cc1)c1ccc(C)cc1)C32 (stereo not drawn) ... -96.9
CC[C@]12C=CCN3CC[C@@]4(c5ccc(OC)cc5N(C)[C@H]4[C@@](O)(C(=O)OC)[C@@H]1OC(=O)CCCC[P+](c1ccc(C)cc1)(c1ccc(C)cc1)c1ccc(C)cc1)[C@@H]32 [10a] ... -97
CCC12C=CCN3CC[C@@]4(c5ccc(OC)cc5N(C)[C@H]4[C@@](O)(C(=O)OC)[C@@H]1OC(C)=O)[C@@H]32 (stereo partly drawn) ... 114
CC[C@]12C=CCN3CC[C@@]4(c5ccc(OC)cc5N(C)[C@H]4[C@@](O)(C(=O)OC)[C@@H]1OC(=O)CCC[P+](c1ccccc1)(c1ccccc1)c1ccccc1OC)[C@@H]32 ... -64.2
CC[C@]12C=CCN3CC[C@@]4(c5ccc(OC)cc5N(C)[C@H]4[C@@](O)(C(=O)OC)[C@@H]1OC(=O)CCC[P+](c1ccc(F)cc1)(c1ccc(F)cc1)c1ccc(F)cc1)[C@@H]32 ... -9.4

**Query** Find the measured activity at 10 µM: item CC[C@]12C=CCN3CC[C@@]4(c5ccc(OC)cc5N(C)[C@H]4[C@@](O)(C(=O)OC)[C@@H]1OC(=O)CCCC[P+](c1ccc(OC)cc1)(c1ccc(OC)cc1)c1ccc(OC)cc1)[C@@H]32 [10b] , target or system BT-549.
**Result** -96.7

---

# Test system: A2780
# Test method notes: MTT antiproliferative assay
# Assay type: cell-based, human
# Conditions: Homo sapiens; A2780, MTT, 72 h; read-out: IC50 Value (μM) ± SEM
# Description: The antiproliferative properties of the tested compounds were additionally determined using the MTT assay against a panel of human adherent cancer cell lines isolated from breast (MCF-7 and MDA-MB-231), cervical (HeLa and SiHa), and ovarian (A2780) tumors and also on the NIH/3T3 fibroblast cell line (Table 3). […] The tumor selectivity of compound 9g, expressed as the ratio of IC50 on cancer cells and fibroblasts, is substantially higher than that of cisplatin (Table 4). […]
Parameter measured: IC50
Remember to quote the unit after the number.

**Query** Which IC50 reading was recorded for the compound `CC[C@]12C=CCN3CC[C@@]4(c5ccc(OC)cc5N(C)[C@H]4[C@@](O)(C(=O)OC)[C@@H]1OC(=O)CCC[P+](c1ccccc1)(c1ccccc1)c1ccccn1)[C@@H]32` ?
**Result** 1.5 µM

From: paper PMC12028158
